- assay_target: pooled human IgG
property: Enzyme Activity Endpoint Assay (purified): scIgG (ng/µL)
Kindly answer with a numeric value in ng/µL, unit omitted.

Look up Enzyme Activity Endpoint Assay (purified): scIgG for this protein: PRT-532 (protein) MANQEIRYSEETPKTITSIWTKGVTPPTDFIKNEDVLHAPYIANQGWYDITKTFNGKDDLLCGAATAGNMLHWWFDQNKEEIENYLKKHPEKQKINFNGEQMFDVKEAIDTKDSQTDSKLFEYFKDKAFPYLSTKHLGVMPDLVLDMFINGYYLSLGKHGPTPVKRGTKDPRGGIFDAVFTRGDQSKLLTARHDFKEKTLNEISDLIKQELTEGKALALSHTYANVRINHVINLWGADFNSEGNLEAIYVTDSDSNASIGMKKYYVGVNAAGKVAISAKEIEGDNIGAQVLGLFTLSTGQDIWNQTNLEHHHHHH
217

Look up Enzyme Activity Endpoint Assay (purified): scIgG for this protein: PRT-630 (protein) MQITSVWTKGVTPLTPEQFRYNNEDVIHAPYLAHQGWYDITKAFDGKDNLLCGAATAGNMLHWWFDQNKEEIENYLKKYPEKQKIIFNNQELFDLKAAIDTKDSQTNSQLFNYFRDKAFPNLSARQLGVMPDLVLDMFINGYYLNVFKTQSTDVNRPYQDKDKRGGIFDAVFTRGDQTTLLTARHDLKNKGLNDISTIIKQELTEGRALALSHTYANVSISHVINLWGADFNAEGNLEAIYVTDSDANASIGMKKYFVGINAHGHVAISAKKIEGENIGAQVLGLFTLSSGQEIWEQLSLEHHHHHH
0

Look up Enzyme Activity Endpoint Assay (purified): scIgG for this protein: PRT-166 (protein) MANQEIRYSEVTPYHVTSVWTKGVTPPANFTQGEDVFHAPYVANQGWYDITKAFDGGDDLLCGAATAGNMLHWWFDQNKDQIKRYLEEHPEKQKINFNGEQMFDVKEAIDTKNSQTNSELFNYFKEKAFPYLSTKHLGVFPDHVIDMFINGYRLSLTNHGPTPVKEGSKDPRGGIFDAVFTRGDQSKLLTSRHDFKEKNLKEISDLIKKELTEGKALGLSHTYANVRINHVINLWGADFDSNGNLKAIYVTDSDSNASIGMKKYFVGVNSAGKVAISAKEIKEDNIGAQVLGLFTLSTGQDSWNQTN
0

Look up Enzyme Activity Endpoint Assay (purified): scIgG for this protein: PRT-235 (protein) MEVVEVWPYGQNPNGKTEILSQTEDSESLQRLRDIEDFQAEKKMQNVVYTKWLDGVDVKDHDFRKIVDGNIAYYATPLLNGRGFYDINKDFNRDSDKCAAAVAANMFHYWLDINRDNVDRFLRQNPEKHGIIELPDGQLKLSDFLNTYESDHGYRDKSKLFDFISNNFNGPVWTDKLLDNYINGYAYNYKYGRTIEDPTKNTSKINFFKEVFNEKILTNNHSIRNQNEFSVLLSEALYTGKAIGLSYGPAGLRHSLGHIISVWGADLDADGNVVAIYVTDSDDKKLTIGDERVGLKRYKISTDDENRLRLTAYEETDNTGGQIRGLWTLDTGKYAWADYFDKTEQTGTDQAEQLEHHHHHH
483
